MEASURED_ON: Dual specificity tyrosine-phosphorylation-regulated kinase 2 (Homo sapiens, UniProt Q92630)
Sequence (Q92630 whole entry): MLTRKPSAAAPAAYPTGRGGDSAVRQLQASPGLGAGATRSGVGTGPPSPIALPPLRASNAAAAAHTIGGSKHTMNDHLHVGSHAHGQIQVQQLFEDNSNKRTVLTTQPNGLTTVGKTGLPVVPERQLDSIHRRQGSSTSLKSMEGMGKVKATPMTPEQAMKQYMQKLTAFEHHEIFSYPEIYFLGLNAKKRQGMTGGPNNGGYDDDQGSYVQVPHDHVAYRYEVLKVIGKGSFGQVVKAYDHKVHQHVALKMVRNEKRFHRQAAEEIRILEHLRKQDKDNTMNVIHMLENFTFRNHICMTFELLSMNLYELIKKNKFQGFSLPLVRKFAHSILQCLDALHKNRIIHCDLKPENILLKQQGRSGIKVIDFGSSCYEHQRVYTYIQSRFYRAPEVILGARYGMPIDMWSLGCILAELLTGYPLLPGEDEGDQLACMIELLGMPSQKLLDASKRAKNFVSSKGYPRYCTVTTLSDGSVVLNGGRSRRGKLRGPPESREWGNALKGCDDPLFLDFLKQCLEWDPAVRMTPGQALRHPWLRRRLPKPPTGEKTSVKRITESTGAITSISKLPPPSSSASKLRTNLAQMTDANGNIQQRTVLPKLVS
MEASURED_METRIC: IC50 (µM)

INSERT INTO assay_data (molecule, measured_metric, quantitative_result) VALUES
  ('O=C1NC(NC2CC23CCCCC3)=N/C1=C\c1ccc2ncsc2c1 (stereo not given)', 'IC50', 0.355),
  ('COC(=O)[C@H](Cc1ccccc1)NC1=N/C(=C\c2ccc3ncsc3c2)C(=O)N1', 'IC50', 0.216),
  ('O=C1NC(NC2CCC(F)(F)CC2)=N/C1=C\c1ccc2ncsc2c1', 'IC50', 0.455),
  ('COC(=O)[C@@H](NC1=N/C(=C\c2ccc3ncsc3c2)C(=O)N1)C(C)O (stereo not given in full)', 'IC50', 0.513),
  ('O=C1NC(NC2CCC(F)(F)C2)=N/C1=C\c1ccc2ncsc2c1 (racemic)', 'IC50', 0.389);

###

A set of compounds tested on Cyclin-dependent kinase 5/CDK5 activator 1 (Homo sapiens, UniProt Q00535), with measured IC50:
MEASURED_METRIC: IC50

INSERT INTO results (compound, measured_on, measured_metric, result) VALUES
  ('O=C1NC(N[C@@H]2CCC[C@@H]2O)=N/C1=C\c1ccc2ncsc2c1 (racemic)', 'Cyclin-dependent kinase 5/CDK5 activator 1 (Homo sapiens, UniProt Q00535)', 'IC50', '> 10 µM'),
  ('O=C1NC(NC23CC4CC(CC(C4)C2)C3)=N/C1=C\c1ccc2c(c1)OCO2', 'Cyclin-dependent kinase 5/CDK5 activator 1 (Homo sapiens, UniProt Q00535)', 'IC50', '> 10 µM'),
  ('O=C1NC(NC2CCCCCC2)=N/C1=C\c1ccc2[nH]ncc2c1', 'Cyclin-dependent kinase 5/CDK5 activator 1 (Homo sapiens, UniProt Q00535)', 'IC50', '> 10 µM'),
  ('CN1CCC(NC2=N/C(=C\c3ccc4ncsc4c3)C(=O)N2)CC1', 'Cyclin-dependent kinase 5/CDK5 activator 1 (Homo sapiens, UniProt Q00535)', 'IC50', '> 10 µM'),
  ('Cc1csc(CNC2=N/C(=C\c3ccc4ncsc4c3)C(=O)N2)n1', 'Cyclin-dependent kinase 5/CDK5 activator 1 (Homo sapiens, UniProt Q00535)', 'IC50', '> 10 µM'),
  ('CS(=O)(=O)NC12CC3CC(CC(NC4=N/C(=C\c5ccc6ncsc6c5)C(=O)N4)(C3)C1)C2', 'Cyclin-dependent kinase 5/CDK5 activator 1 (Homo sapiens, UniProt Q00535)', 'IC50', '1.54 µM'),
  ('Cn1ncc2cccc(NC3=N/C(=C\c4ccc5ncsc5c4)C(=O)N3)c21', 'Cyclin-dependent kinase 5/CDK5 activator 1 (Homo sapiens, UniProt Q00535)', 'IC50', '> 10 µM'),
  ('CC(C)C[C@H](COCc1ccccc1)NC1=N/C(=C\c2ccc3ncsc3c2)C(=O)N1', 'Cyclin-dependent kinase 5/CDK5 activator 1 (Homo sapiens, UniProt Q00535)', 'IC50', '> 10 µM'),
  ('O=C1NC(NC23CC4CC(CC2C4)C3)=N/C1=C\c1ccc2ncsc2c1', 'Cyclin-dependent kinase 5/CDK5 activator 1 (Homo sapiens, UniProt Q00535)', 'IC50', '3.21 µM'),
  ('O=C1NC(NC23CC4CC(CC(C4)C2)C3)=N/C1=C\c1ccc2[nH]ncc2c1', 'Cyclin-dependent kinase 5/CDK5 activator 1 (Homo sapiens, UniProt Q00535)', 'IC50', '> 10 µM');

###

Parameter: pIC50. Scope: all listed entries.
MEASURED_ON: Casein kinase I isoform epsilon (Homo sapiens)
Sequence (P49674 whole entry, canonical isoform): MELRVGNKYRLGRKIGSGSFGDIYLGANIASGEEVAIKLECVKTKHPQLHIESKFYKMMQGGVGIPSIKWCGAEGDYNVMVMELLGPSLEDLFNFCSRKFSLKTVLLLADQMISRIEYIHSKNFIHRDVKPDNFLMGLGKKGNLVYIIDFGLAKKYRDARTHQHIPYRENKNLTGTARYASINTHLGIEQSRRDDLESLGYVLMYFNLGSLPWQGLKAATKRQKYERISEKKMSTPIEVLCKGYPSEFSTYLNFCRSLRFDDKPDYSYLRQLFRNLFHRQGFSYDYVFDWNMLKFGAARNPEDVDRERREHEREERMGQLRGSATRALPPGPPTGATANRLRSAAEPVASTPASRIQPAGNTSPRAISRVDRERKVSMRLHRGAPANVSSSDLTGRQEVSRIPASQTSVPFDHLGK
pIC50: −log10 of the molar value.
MEASURED_METRIC: pIC50

INSERT INTO results (compound, measured_metric, result) VALUES
  ('Cn1ccc(NC2=N/C(=C\c3ccc4ncsc4c3)C(=O)N2)n1', 'pIC50', '< 5.00'),
  ('C[C@@H]1[C@H]2C[C@@H](C[C@H]1NC1=N/C(=C\c3ccc4ncsc4c3)C(=O)N1)C2(C)C', 'pIC50', '< 5.00'),
  ('O=C1NC(NC2CCNC2=O)=N/C1=C\c1ccc2ncsc2c1 (racemic)', 'pIC50', '< 5.00'),
  ('Cn1ncc2cc(/C=C3\N=C(NC45CC6CC(CC(C6)C4)C5)NC3=O)ccc21', 'pIC50', '< 5.00'),
  ('COC(=O)[C@H](Cc1ccccc1)NC1=N/C(=C\c2ccc3ncsc3c2)C(=O)N1', 'pIC50', '< 5.00');

###

MEASURED_ON: Dual specificity protein kinase CLK1 (Homo sapiens, UniProt P49759)
Sequence (P49759 whole entry): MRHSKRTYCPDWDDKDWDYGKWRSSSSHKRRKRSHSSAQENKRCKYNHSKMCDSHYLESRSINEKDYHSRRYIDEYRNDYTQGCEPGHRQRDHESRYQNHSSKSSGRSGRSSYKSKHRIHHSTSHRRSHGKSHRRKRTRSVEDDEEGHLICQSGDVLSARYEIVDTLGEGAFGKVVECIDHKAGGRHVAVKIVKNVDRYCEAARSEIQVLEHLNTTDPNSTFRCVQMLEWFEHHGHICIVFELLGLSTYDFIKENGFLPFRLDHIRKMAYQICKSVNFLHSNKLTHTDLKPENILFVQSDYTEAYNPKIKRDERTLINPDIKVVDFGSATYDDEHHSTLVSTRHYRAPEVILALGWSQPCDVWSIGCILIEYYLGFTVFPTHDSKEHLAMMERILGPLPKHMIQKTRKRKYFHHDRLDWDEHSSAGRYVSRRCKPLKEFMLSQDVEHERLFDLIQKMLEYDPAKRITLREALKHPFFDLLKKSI
MEASURED_METRIC: log10 IC50 (log10 of the value in µM)

INSERT INTO measurements (molecule, measured_on, quantitative_result) VALUES
  ('CC(C)C[C@H](COCc1ccccc1)NC1=N/C(=C\c2ccc3ncsc3c2)C(=O)N1', 'Dual specificity protein kinase CLK1 (Homo sapiens, UniProt P49759)', -0.66),
  ('O=C1NC(NC2CCOCC2)=N/C1=C\c1ccc2ncsc2c1', 'Dual specificity protein kinase CLK1 (Homo sapiens, UniProt P49759)', -1.62),
  ('O=C1NC(NC23CC4CC(CC(C4)C2)C3)=N/C1=C\c1ccc2ncoc2c1', 'Dual specificity protein kinase CLK1 (Homo sapiens, UniProt P49759)', -2.10),
  ('O=C1NC(NC2CC3(CCC3)C2)=N/C1=C\c1ccc2ncsc2c1', 'Dual specificity protein kinase CLK1 (Homo sapiens, UniProt P49759)', -1.77),
  ('O=C1NC(NC2CCCCC2)=N/C1=C\c1ccc2c(c1)CCO2', 'Dual specificity protein kinase CLK1 (Homo sapiens, UniProt P49759)', -0.98),
  ('CC(C)C[C@@H](CF)NC1=N/C(=C\c2ccc3ncsc3c2)C(=O)N1', 'Dual specificity protein kinase CLK1 (Homo sapiens, UniProt P49759)', -2.15),
  ('Cn1cnc2ccc(/C=C3\N=C(NC45CC6CC(CC(C6)C4)C5)NC3=O)cc21', 'Dual specificity protein kinase CLK1 (Homo sapiens, UniProt P49759)', -2.05),
  ('Cn1cc2cc(/C=C3\N=C(NC4CCCCCC4)NC3=O)ccc2n1', 'Dual specificity protein kinase CLK1 (Homo sapiens, UniProt P49759)', -1.17),
  ('O=C1NC(Nc2ccccc2)=N/C1=C\c1ccc2ncsc2c1', 'Dual specificity protein kinase CLK1 (Homo sapiens, UniProt P49759)', -1.89),
  ('CN1CC[C@](C)(NC2=N/C(=C\c3ccc4ncsc4c3)C(=O)N2)C1=O (stereo in doubt)', 'Dual specificity protein kinase CLK1 (Homo sapiens, UniProt P49759)', -0.90);

###

MEASURED_ON: Dual specificity protein kinase CLK3 (Homo sapiens, UniProt P49761)
Sequence (P49761 whole entry): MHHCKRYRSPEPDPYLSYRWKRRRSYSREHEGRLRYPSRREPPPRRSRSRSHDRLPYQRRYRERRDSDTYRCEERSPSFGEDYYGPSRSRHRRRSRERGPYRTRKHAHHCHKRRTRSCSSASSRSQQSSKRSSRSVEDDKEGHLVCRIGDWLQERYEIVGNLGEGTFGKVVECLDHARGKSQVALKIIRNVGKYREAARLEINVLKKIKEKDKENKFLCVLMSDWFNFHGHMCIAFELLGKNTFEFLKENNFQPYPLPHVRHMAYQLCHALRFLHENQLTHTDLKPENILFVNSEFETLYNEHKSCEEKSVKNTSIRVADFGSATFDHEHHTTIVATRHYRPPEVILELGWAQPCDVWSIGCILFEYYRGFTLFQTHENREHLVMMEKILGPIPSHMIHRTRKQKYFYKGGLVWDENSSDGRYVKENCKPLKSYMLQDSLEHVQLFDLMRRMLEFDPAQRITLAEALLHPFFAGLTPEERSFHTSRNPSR
Binarize IC50 at 1000 nM; below is YES, at or above is NO.

INSERT INTO measurements (compound, measured_on, answer_label) VALUES
  ('CO[C@H]1CCCC[C@@H]1NC1=N/C(=C\c2ccc3ncsc3c2)C(=O)N1', 'Dual specificity protein kinase CLK3 (Homo sapiens, UniProt P49761)', 'YES'),
  ('CC(C)(C)NC(=O)OC12CC3CC(CC(NC4=N/C(=C\c5ccc6ncsc6c5)C(=O)N4)(C3)C1)C2', 'Dual specificity protein kinase CLK3 (Homo sapiens, UniProt P49761)', 'YES'),
  ('CCOC[C@@H](CC(C)C)NC1=N/C(=C\c2ccc3ncsc3c2)C(=O)N1', 'Dual specificity protein kinase CLK3 (Homo sapiens, UniProt P49761)', 'YES'),
  ('COC(=O)[C@H](Cc1ccccc1)NC1=N/C(=C\c2ccc3ncsc3c2)C(=O)N1', 'Dual specificity protein kinase CLK3 (Homo sapiens, UniProt P49761)', 'NO'),
  ('O=C1NC(NC23CC4CC(CC(C4)C2)C3)=N/C1=C\c1ccc2[nH]cnc2c1', 'Dual specificity protein kinase CLK3 (Homo sapiens, UniProt P49761)', 'NO'),
  ('CC[C@@H](CO)NC1=N/C(=C\c2ccc3ncsc3c2)C(=O)N1', 'Dual specificity protein kinase CLK3 (Homo sapiens, UniProt P49761)', 'NO'),
  ('O=C1NC(NCc2ccccc2)=N/C1=C\c1ccc2ncsc2c1', 'Dual specificity protein kinase CLK3 (Homo sapiens, UniProt P49761)', 'YES'),
  ('Cc1ccc(CNC2=N/C(=C\c3ccc4ncsc4c3)C(=O)N2)cc1C', 'Dual specificity protein kinase CLK3 (Homo sapiens, UniProt P49761)', 'NO'),
  ('COC(=O)[C@@H](NC1=N/C(=C\c2ccc3ncsc3c2)C(=O)N1)C(C)O (stereo partly specified)', 'Dual specificity protein kinase CLK3 (Homo sapiens, UniProt P49761)', 'YES'),
  ('O=C1NC(NC2CCCCCC2)=N/C1=C\c1ccc2c(c1)OCO2', 'Dual specificity protein kinase CLK3 (Homo sapiens, UniProt P49761)', 'NO'),
  ('O=C1NC(N[C@H]2C3CC4CC2C[C@](O)(C4)C3)=N/C1=C\c1ccc2ncsc2c1', 'Dual specificity protein kinase CLK3 (Homo sapiens, UniProt P49761)', 'YES'),
  ('O=C1NC(NC2CCCCC2)=N/C1=C\c1ccc2nnsc2c1', 'Dual specificity protein kinase CLK3 (Homo sapiens, UniProt P49761)', 'NO'),
  ('Cn1ncc2cc(/C=C3\N=C(NC45CC6CC(CC(C6)C4)C5)NC3=O)ccc21', 'Dual specificity protein kinase CLK3 (Homo sapiens, UniProt P49761)', 'NO'),
  ('O=C1NC(NC2CCCCCC2)=N/C1=C\c1ccc2nnsc2c1', 'Dual specificity protein kinase CLK3 (Homo sapiens, UniProt P49761)', 'NO'),
  ('O=C1NC(NC23CC4CC(CC(C4)C2)C3)=N/C1=C\c1ccc2c(c1)OCO2', 'Dual specificity protein kinase CLK3 (Homo sapiens, UniProt P49761)', 'NO'),
  ('O=C1NC(NC2COC2)=N/C1=C\c1ccc2ncsc2c1', 'Dual specificity protein kinase CLK3 (Homo sapiens, UniProt P49761)', 'YES'),
  ('O=C1NC(NCCCn2ccnc2)=N/C1=C\c1ccc2ncsc2c1', 'Dual specificity protein kinase CLK3 (Homo sapiens, UniProt P49761)', 'NO'),
  ('O=C1NC(NCc2ccccc2C(F)(F)F)=N/C1=C\c1ccc2ncsc2c1', 'Dual specificity protein kinase CLK3 (Homo sapiens, UniProt P49761)', 'YES'),
  ('O=C1NC(N[C@H]2c3ccccc3C[C@@H]2O)=N/C1=C\c1ccc2ncsc2c1', 'Dual specificity protein kinase CLK3 (Homo sapiens, UniProt P49761)', 'YES'),
  ('Cc1cnc(CNC2=N/C(=C\c3ccc4ncsc4c3)C(=O)N2)cn1', 'Dual specificity protein kinase CLK3 (Homo sapiens, UniProt P49761)', 'NO'),
  ('Cc1nc2ccc(/C=C3\N=C(NC45CC6CC(CC(C6)C4)C5)NC3=O)cc2s1', 'Dual specificity protein kinase CLK3 (Homo sapiens, UniProt P49761)', 'NO');
